Entries annotated with measured AC50
# TESTED_TARGET: Acetylcholinesterase (Homo sapiens, UniProt P22303); note: assay procedure not described here
# Sequence (P22303 whole entry): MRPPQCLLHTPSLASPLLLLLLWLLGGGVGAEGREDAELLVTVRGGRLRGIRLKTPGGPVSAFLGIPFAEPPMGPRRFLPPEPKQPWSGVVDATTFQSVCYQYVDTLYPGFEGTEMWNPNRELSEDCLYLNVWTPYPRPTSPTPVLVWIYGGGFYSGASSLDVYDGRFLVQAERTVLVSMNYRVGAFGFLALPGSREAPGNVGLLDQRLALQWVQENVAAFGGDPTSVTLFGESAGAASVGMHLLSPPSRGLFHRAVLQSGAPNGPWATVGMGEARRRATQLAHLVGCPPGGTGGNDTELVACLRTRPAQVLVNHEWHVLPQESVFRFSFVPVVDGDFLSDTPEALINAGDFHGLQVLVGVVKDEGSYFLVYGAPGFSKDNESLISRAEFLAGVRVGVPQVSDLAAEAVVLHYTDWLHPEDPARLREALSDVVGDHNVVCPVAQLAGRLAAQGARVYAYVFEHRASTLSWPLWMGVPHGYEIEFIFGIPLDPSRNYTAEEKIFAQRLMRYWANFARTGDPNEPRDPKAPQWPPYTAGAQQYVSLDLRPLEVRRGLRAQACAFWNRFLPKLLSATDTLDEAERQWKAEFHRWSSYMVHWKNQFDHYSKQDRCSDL
# Assay type: functional

CC(=O)Nc1ccc(O)cc1 [ACETAMINOPHEN] :: > 30 µM
Clc1ccc(C(OCCN2CCCCC2)c2ccccc2)cc1 (stereo not given) [CLOPERASTINE] :: > 30 µM
CC1(C)NC(=O)N(c2ccc([N+](=O)[O-])c(C(F)(F)F)c2)C1=O [NILUTAMIDE] :: > 30 µM
O=C(O)CN(CCN(CC(=O)O)CC(=O)O)CC(=O)O [EDETIC ACID] :: > 30 µM

Query string: Identify AC50 associated with the compound C=CCc1ccccc1OCC(O)CNC(C)C (stereo not given) [ALPRENOLOL]
Result string: > 0.3 µM

Entry source: ChEMBL document CHEMBL5291721
